experiment: NFAT Signaling Pathway (AID 444); details: Jurkat NFAT-bla M1, carbachol, beta-lactamase ratio, 5 h; at 17.2 µM (top of the series) unless noted;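 note: carbachol stimulus at about its EC50 of 1 µM final; % is set by controls: 0 for no effect and ±100 for the full control effect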
Results filed as inconclusive are left out. The source made the active and inactive calls. Calls come from the whole dose curve; as a rule, active = well fitted curve in either direction with a large enough effect (not every such curve was filed as active); inconclusive = small, poorly fitted or top-dose-only effect, or another doubt; inactive = flat fitted curve, though single readings scatter.
Reported activity change, negative = inhibition values follow for various compounds

COMPOUND	activity change, negative = inhibition
N#CCCSc1nc(N2CCOCC2)c2c(c1C#N)CCCC2	13.2% (inactive)
O=C(O)c1ccc(COc2c(F)c(F)c(F)c(F)c2F)o1	-0.748% (inactive)
Nc1ncnc2c1ncn2[C@@H]1O[C@@H](COP(=O)(O)OP(=O)(O)OP(=O)(O)OP(=O)(O)OC[C@@H]2O[C@@H](n3cnc4c(N)ncnc43)[C@@H](O)[C@H]2O)[C@H](O)[C@@H]1O	-0.343% [at 38 µM] (inactive)
CC(C)CC(=O)Nc1ccccc1N1CCCC1	8.79% (inactive)
COc1cc(C2C(C(=O)c3ccc(C)o3)=C(O)C(=O)N2c2cc(C)on2)cc(OC)c1OC (stereo unspecified)	-1.16% (inactive)
CCn1cc(C(=O)NCc2ccco2)c(=O)c2cc(F)c(N3CCN(C(=O)c4ccco4)CC3)cc21	-28.1% (inactive)
